Tested on: Aspergillus fumigatus
assay.notes: Antimicrobial activity against Aspergillus fumigatus by broth microdilution method
Type: functional, organism-based
Threshold 5 µg/mL. IC50 below it: t. IC50 at it or above: f.

Use the examples below as a reference point.
{"columns": ["compound", "assigned.category"],
 "data": [
  ["C[Si](C)(C)c1cn(CC(O)(Cn2cncn2)c2ccc(F)cc2F)nn1 (stereo not drawn)", "f"],
  ["C[C@H](CCC(=O)OCc1cn(CC(O)(Cn2cncn2)c2ccc(F)cc2F)nn1)[C@H]1CC[C@H]2[C@@H]3[C@H](O)C[C@@H]4C[C@H](O)CC[C@]4(C)[C@H]3C[C@H](O)[C@]12C (stereo partly drawn)", "f"],
  ["OC(Cn1cncn1)(Cn1ccnn1)c1ccc(F)cc1F (stereo not drawn)", "f"],
  ["CC(=O)N1CCN(c2ccc(OCC3COC(Cn4ccnc4)(c4ccc(Cl)cc4Cl)O3)cc2)CC1 (stereo not drawn) [KETOCONAZOLE]", "t"],
  ["CCCCCCCCn1cc(CC(O)(Cn2cncn2)c2ccc(F)cc2F)nn1 (stereo not drawn)", "t"],
  ["C[C@H](CCC(=O)OCc1cn(CC(O)(Cn2cncn2)c2ccc(F)cc2F)nn1)[C@H]1CC[C@H]2[C@@H]3CC[C@@H]4C[C@H](O)CC[C@]4(C)[C@H]3C[C@H](O)[C@]12C (stereo partly drawn)", "f"]
]}

Ask | Consider the compound OC(Cc1c[nH]nn1)(Cn1cncn1)c1ccc(F)cc1F (stereo not drawn) . Is its IC50 strictly less than 5 µg/mL?
Reply | f
